Origin of the recorded values: ChEMBL document CHEMBL4765457

TEST NAME: Cytotoxicity against human MT4 cells assessed as reduction in cell viability incubated for 5 days by MTT assay
Type: cell-based
RUN PARAMETERS: time 5 day
RESULT TYPE: CC50 at 120 h

Sample records with CC50 at 120 h:
O=C1Nc2ccc(Cl)cc2[C@@](C#CC2CC2)(C(F)(F)F)O1 [EFAVIRENZ]
> 6.34 µM
Cc1cn([C@H]2C[C@H](N=[N+]=[N-])[C@@H](CO)O2)c(=O)[nH]c1=O [ZIDOVUDINE]
> 7.48 µM

Consider now this further molecule.
What measured CC50 at 120 h goes with Cc1ccnc2c1NC(=O)c1cccnc1N2C1CC1 [NEVIRAPINE] ? > 15 µM

###

TEST NAME: Selectivity index, ratio of CC50 for human MT4 cells to EC50 for antiviral activity against HIV1 RES056 infected in human MT4 cells
Assay type: toxicity, cell-based
RUN PARAMETERS: read-out: Ratio CC50/EC50
RESULT TYPE: selectivity ratio

Sample records with selectivity ratio:
Cc1cc(C#N)cc(C)c1Oc1nc(NC2CCN(CC(=O)N3CCOCC3)CC2)nc2ccoc12
< 1
Cc1cc(C#N)cc(C)c1Oc1nc(NC2CCN(CCN3CCOCC3)CC2)nc2cc(F)ccc12
< 1
Cc1cc(C#N)cc(C)c1Oc1nc(NC2CCN(CCN3CCOCC3)CC2)nc2ccoc12
< 1
Cc1cc(C#N)cc(C)c1Oc1nc(NC2CCN(CCN3CCOCC3)CC2)nc2c1COC2
< 1

What measured selectivity ratio goes with "Nc1ccn([C@@H]2CS[C@H](CO)O2)c(=O)n1" ? > 10
